Quick reference for MPE 0.5 hrs. among some compounds
Tested on: mechanical hyperalgesia associated with STZ-induced diabetes
Assay: STZ-induced diabetes mechanical hyperalgesia (neuropathic pain)
Format: in vivo, rat
Conditions: 30 mg/kg i.p., 0.5 hrs
Excerpt: Painful diabetic neuropathy is one of the most common complications of insulin-dependent diabetes in man; in particular, diabetes can be associated with neuropathic pain which fails to be treated by classical analgesics. […] In the following four weeks after the induction of diabetes the clinical symptoms (weight, body and skin temperature, motility and hyperglycemia) progressively developed by the animals, are strictly monitored. […]
Measured endpoint: MPE 0.5 hrs. (%)

[[record]]
compound = "c1cn(-c2ccc3nc(-c4ccc5c(c4)OCO5)ncc3c2)cn1 [Example 3]"
assay_value = 283

[[record]]
compound = "c1ccc(-c2ncc3cc(-n4ccnc4)ccc3n2)cc1 [Example 1]"
assay_value = 236

[[record]]
compound = "CN(C)CCC=C1c2ccccc2CCc2ccccc21 [Amitriptyline, reference compound]"
assay_value = 65

[[record]]
compound = "COc1cccc(C2(O)CCCCC2CN(C)C)c1 (stereo not shown) [Tramadol, reference compound]"
assay_value = 54


Source listed as patent US8193353B2.
